target or system: XIAP BIR3 (Homo sapiens, UniProt P98170)
Construct: covering amino acids 255 to 356; GST; His
Sequence (P98170 255-356): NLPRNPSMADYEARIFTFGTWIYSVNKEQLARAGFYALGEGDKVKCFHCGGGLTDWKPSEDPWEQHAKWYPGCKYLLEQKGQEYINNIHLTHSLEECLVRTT
test: Binding experiment of XIAP BIR3 (fluorescence polarization)
particulars: 30 nM XIAP BIR3, 5 nM probe ARPFAQ-K(5-FAM)-NH2, 60 min
Threshold 100 nM: IC50 strictly smaller gives True, otherwise False.

Solved cases (3 shown):
{"structure": "CN[C@@H](C)C(=O)N[C@H](C(=O)N1CCC[C@H]1Cn1nc(C(C)=O)c2cc(F)ccc21)C1CCCCC1", "target or system": "XIAP BIR3 (Homo sapiens, UniProt P98170)", "assigned category": "False"}
{"structure": "CN[C@@H](C)C(=O)N[C@H](C(=O)N1CCC[C@H]1Cn1cc(C(=O)C(C)C)c2cc(Cl)ccc21)C1CCCCC1", "target or system": "XIAP BIR3 (Homo sapiens, UniProt P98170)", "assigned category": "True"}
{"structure": "CN[C@@H](C)C(=O)N[C@H](C(=O)N1CCC[C@H]1Cn1nc(C#N)c2cc(Cl)ccc21)C1CCCCC1", "target or system": "XIAP BIR3 (Homo sapiens, UniProt P98170)", "assigned category": "False"}

Data request: I'd appreciate it if you could check whether CN[C@@H](C)C(=O)N[C@H](C(=O)N1CCC[C@H]1Cn1cc(C#N)c2cc(Cl)ccc21)C1CCCCC1 has IC50 smaller than 100 nM.
Data returned: True

Data request: I'd appreciate it if you could check whether CN[C@@H](C)C(=O)N[C@H](C(=O)N1CCC[C@H]1Cn1cc(C(C)=O)c2cc(Br)ccc21)C1CCCCC1 has IC50 smaller than 100 nM.
Data returned: True

Data request: I'd appreciate it if you could check whether CN[C@@H](C)C(=O)N[C@H](C(=O)N1CCC[C@H]1Cn1cc(S(C)(=O)=O)c2cc(Cl)ccc21)C1CCCCC1 has IC50 smaller than 100 nM.
Data returned: True

This collection of values is drawn from patent US11358950B2.
